For each of the molecules below, state its Ki.
# Study system: Neuronal acetylcholine receptor; alpha4/beta2 (Rattus norvegicus, UniProt P09483+P12390)
# Sequence (P09483 whole entry): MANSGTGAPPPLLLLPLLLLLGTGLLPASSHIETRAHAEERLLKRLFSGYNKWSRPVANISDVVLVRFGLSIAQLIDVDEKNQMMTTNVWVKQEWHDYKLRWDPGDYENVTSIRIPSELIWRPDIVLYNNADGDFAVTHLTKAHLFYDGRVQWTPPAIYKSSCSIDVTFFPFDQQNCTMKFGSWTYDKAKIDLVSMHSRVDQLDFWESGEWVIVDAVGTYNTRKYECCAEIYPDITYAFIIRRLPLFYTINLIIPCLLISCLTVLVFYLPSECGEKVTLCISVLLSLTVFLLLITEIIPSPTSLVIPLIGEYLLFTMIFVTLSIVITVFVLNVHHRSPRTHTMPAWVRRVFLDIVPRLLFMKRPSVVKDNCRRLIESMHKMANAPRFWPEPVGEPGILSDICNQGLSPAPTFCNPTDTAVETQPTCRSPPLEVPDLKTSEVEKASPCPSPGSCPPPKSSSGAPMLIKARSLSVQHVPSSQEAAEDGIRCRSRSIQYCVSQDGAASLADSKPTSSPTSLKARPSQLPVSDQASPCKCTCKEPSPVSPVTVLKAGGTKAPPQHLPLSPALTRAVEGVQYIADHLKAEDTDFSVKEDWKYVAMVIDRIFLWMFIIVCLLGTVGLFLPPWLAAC
# Sequence (P12390 whole entry): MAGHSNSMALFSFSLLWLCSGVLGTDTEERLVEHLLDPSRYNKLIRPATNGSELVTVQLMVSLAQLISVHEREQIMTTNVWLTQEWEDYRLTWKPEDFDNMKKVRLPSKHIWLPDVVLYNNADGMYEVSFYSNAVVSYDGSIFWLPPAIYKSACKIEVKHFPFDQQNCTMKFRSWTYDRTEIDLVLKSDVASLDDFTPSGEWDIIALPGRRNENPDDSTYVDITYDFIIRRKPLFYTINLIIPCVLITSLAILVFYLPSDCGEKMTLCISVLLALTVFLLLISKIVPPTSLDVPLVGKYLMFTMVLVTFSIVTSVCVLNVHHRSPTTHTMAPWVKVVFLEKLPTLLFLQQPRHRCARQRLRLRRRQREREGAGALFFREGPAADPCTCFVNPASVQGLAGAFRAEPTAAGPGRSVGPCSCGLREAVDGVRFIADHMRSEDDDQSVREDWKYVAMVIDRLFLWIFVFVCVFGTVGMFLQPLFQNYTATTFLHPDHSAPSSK
# Test summary: Displacement of [3H]epibatidine from rat alpha4beta2 nicotinic receptor expressed in human HEK293 cells by liquid scintillation counting
# Format: cell-based
Answers are plain numbers, in nM.

Previously resolved entries follow.
[[record]]
structure = "Fc1cc(COc2cc(OC[C@@H]3CCCN3)cnc2Cl)ccn1"
study_system = "Neuronal acetylcholine receptor; alpha4/beta2 (Rattus norvegicus, UniProt P09483+P12390)"
unit_text = "nM"
recorded_number = 0.13

[[record]]
structure = "CN1CCC[C@H]1COc1cnc(Cl)c(-c2ccnc(F)c2)c1"
study_system = "Neuronal acetylcholine receptor; alpha4/beta2 (Rattus norvegicus, UniProt P09483+P12390)"
unit_text = "nM"
recorded_number = 0.062

[[record]]
structure = "CN1CCC[C@@H]1COc1cnc(Cl)c(OCc2ccc(Cl)nc2)c1"
study_system = "Neuronal acetylcholine receptor; alpha4/beta2 (Rattus norvegicus, UniProt P09483+P12390)"
unit_text = "nM"
recorded_number = 1.1

[[record]]
structure = "CN1CCC[C@H]1COc1cnc(Cl)c(OCc2ccc(Cl)nc2)c1"
study_system = "Neuronal acetylcholine receptor; alpha4/beta2 (Rattus norvegicus, UniProt P09483+P12390)"
unit_text = "nM"
recorded_number = 0.055


Please find the next molecule below.
INPUT: Write down Ki measured for item CN1CCC[C@H]1COc1cnc(Cl)c(OCc2ccnc(F)c2)c1
OUTPUT: 0.062

###

# Test summary: Octanol-water partition coefficient, log D at pH 7.4 by shake flask method
# Type: physicochemical
# Measurement conditions: read-out: logD
Assay metric: logD
Numbers only.

INPUT: Write down logD measured for item [11CH3]N1CCC[C@H]1COc1cnc(Cl)c(/C=C/c2ccncc2)c1
OUTPUT: 1.6

###

# Study system: Neuronal acetylcholine receptor; alpha4/beta4 (Rattus norvegicus, UniProt P09483+P12392)
# Sequence (P09483 whole entry): as the sequence (P09483 whole entry) above
# Sequence (P12392 whole entry): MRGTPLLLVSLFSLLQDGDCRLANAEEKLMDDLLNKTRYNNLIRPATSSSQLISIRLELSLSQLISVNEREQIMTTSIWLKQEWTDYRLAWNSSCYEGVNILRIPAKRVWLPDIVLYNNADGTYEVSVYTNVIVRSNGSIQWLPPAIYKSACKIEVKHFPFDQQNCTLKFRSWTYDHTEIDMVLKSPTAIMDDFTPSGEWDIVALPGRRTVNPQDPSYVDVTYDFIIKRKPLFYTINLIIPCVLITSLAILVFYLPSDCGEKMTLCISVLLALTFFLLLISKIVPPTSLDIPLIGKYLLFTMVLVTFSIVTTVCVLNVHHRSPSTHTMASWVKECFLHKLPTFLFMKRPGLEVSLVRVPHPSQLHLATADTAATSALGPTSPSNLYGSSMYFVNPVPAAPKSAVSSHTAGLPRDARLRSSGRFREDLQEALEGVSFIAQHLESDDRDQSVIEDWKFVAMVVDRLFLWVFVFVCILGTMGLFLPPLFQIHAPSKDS
# Test summary: Displacement of [3H]epibatidine from rat alpha4beta4 nicotinic receptor expressed in human HEK293 cells by liquid scintillation counting
For each of the compounds below, state its Ki.
Remember to quote the unit after the number.

Previously resolved entries follow.
[[record]]
structure = "CN1CCC[C@H]1COc1cnc(Cl)c(OCc2ccnc(F)c2)c1"
result = "1.6 nM"

[[record]]
structure = "CN1CCC[C@H]1COc1cnc(Cl)c(-c2ccnc(F)c2)c1"
result = "16 nM"

[[record]]
structure = "CN1CCC[C@@H]1COc1cnc(Cl)c(OCc2ccc(Cl)nc2)c1"
result = "7.6 nM"

[[record]]
structure = "Fc1cc(COc2cc(OC[C@@H]3CCCN3)cnc2Cl)ccn1"
result = "1.1 nM"


Please find the next compound below.
INPUT: State measured Ki of the compound CN1CCC[C@H]1COc1cnc(Cl)c(OCc2ccc(Cl)nc2)c1 with Neuronal acetylcholine receptor; alpha4/beta4 (Rattus norvegicus, UniProt P09483+P12392).
OUTPUT: 6.6 nM

###

# Study system: Neuronal acetylcholine receptor; alpha4/beta2 (Rattus norvegicus) (UniProt P09483+P12390)
# Test summary: Ratio of compound Ki to epibatidine Ki for rat alpha4beta2 nicotinic receptor expressed in human HEK293 cells
# Format: cell-based
Decision: Ratio Ki beneath 1 gives Condition met; Ratio Ki meeting or exceeding 1 gives Condition not met.

[[record]]
structure = "CN1CCC[C@H]1COc1cnc(Cl)c(/C=C/c2ccncc2)c1"
study_system = "Neuronal acetylcholine receptor; alpha4/beta2 (Rattus norvegicus) (UniProt P09483+P12390)"
class_name = "Condition not met"

[[record]]
structure = "Fc1cc(COc2cc(OC[C@@H]3CCCN3)cnc2Cl)ccn1"
study_system = "Neuronal acetylcholine receptor; alpha4/beta2 (Rattus norvegicus) (UniProt P09483+P12390)"
class_name = "Condition not met"

[[record]]
structure = "CN1CCC[C@@H]1COc1cnc(Cl)c(OCc2ccc(Cl)nc2)c1"
study_system = "Neuronal acetylcholine receptor; alpha4/beta2 (Rattus norvegicus) (UniProt P09483+P12390)"
class_name = "Condition not met"


Next compound, please.
INPUT: Dear colleague, could you confirm whether Ratio Ki of CN1CCC[C@H]1COc1cnc(Cl)c(OCc2ccc(Cl)nc2)c1 falls below 1? Thanks.
OUTPUT: Condition met
